Each entry below carries its recorded viability, T/C.
# System: 138582-337-R-J1-PDC complex spheroid viability
# Experiment: Anticancer human tumor 138582-337-R-J1-PDC patient-derived Merkel cell tumor cell line growth inhibition
# Run Conditions: second compound 1 µM; first compound 0.00949 µM; stronger effect = lower value
The reply should be a number in %, with the unit left off.

Solved entries (count: 7):
Compound: Nc1ccn(C2OC(CO)C(O)C2(F)F)c(=O)n1 (stereo not drawn) + NC1CC1c1ccc(-c2cccc(O)c2)cc1
viability, T/C (%): 79.5
//
Compound: Nc1ncn(C2CC(O)C(CO)S2)c(=O)n1 (stereo not drawn) + NC1CCC(NC2CC2c2ccccc2)CC1
viability, T/C (%): 107
//
Compound: Nc1ccn(C2OC(CO)C(O)C2(F)F)c(=O)n1 (stereo not drawn) + NC1CCC(NC2CC2c2ccccc2)CC1
viability, T/C (%): 95.4
//
Compound: Nc1ccccc1NC(=O)c1ccc(CNC(=O)OCc2cccnc2)cc1 + NC1CCC(NC2CC2c2ccccc2)CC1
viability, T/C (%): 96.1
//
Compound: Nc1ncn(C2CC(O)C(CO)S2)c(=O)n1 (stereo not drawn) + NC1CC1c1ccc(-c2cccc(O)c2)cc1
viability, T/C (%): 70.8
//
Compound: CCN(c1cc(-c2ccc(CN3CCOCC3)cc2)cc(C(=O)NCc2c(C)cc(C)[nH]c2=O)c1C)C1CCOCC1 + NC1CCC(NC2CC2c2ccccc2)CC1
viability, T/C (%): 98.6
//
Compound: CCc1c2c(nc3ccc(O)cc13)-c1cc3c(c(=O)n1C2)COC(=O)[C@]3(O)CC + NC1CC1c1ccc(-c2cccc(O)c2)cc1
viability, T/C (%): 23.9

Okay, next one:
**Q:** Which measured viability, T/C value corresponds to NS(=O)(=O)OCC1CC(n2ccc3c(NC4CCc5ccccc54)ncnc32)CC1O (stereo not drawn) + NC1CCC(NC2CC2c2ccccc2)CC1 ?
**A:** 106

* * *

# Tested on: 138582-337-R-J1-PDC complex spheroid viability
# Experiment: Anticancer human tumor 138582-337-R-J1-PDC cell line growth inhibition;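 also: spheroids exposed to agents for 7 days; 100% = DMSO vehicle control viability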
# Run Conditions: second compound 0.316 µM; first compound 0.03 µM; stronger effect = lower value
# Source text: Multicellular complex tumor spheroid response to LSD1 Inhibitor Iadademstat in combination with a variety of drugs and investigational agents in selected tumor cell lines The current study was undertaken to assess response to LSD1 inhibitors in combination with standard-of-care drugs and investigational agents in solid tumor complex spheroid models as well as in the K-562 leukemia. […] Compounds. […] If the clinical Cmax for an agent had not been determined, the highest concentration tested was 10 microM. […]
Parameter: viability, T/C (%)
# unit: % | format: bare number

In the examples that follow, each entry is paired with its recorded viability, T/C.
Compound: NS(=O)(=O)OCC1CC(n2ccc3c(NC4CCc5ccccc54)ncnc32)CC1O (centres undefined) + NC1CCC(NC2CC2c2ccccc2)CC1
Tested On: 138582-337-R-J1-PDC complex spheroid viability
viability, T/C [%]: 96.2
--
Compound: CCc1c2c(nc3ccc(O)cc13)-c1cc3c(c(=O)n1C2)COC(=O)[C@]3(O)CC + NC1CCC(NC2CC2c2ccccc2)CC1
Tested On: 138582-337-R-J1-PDC complex spheroid viability
viability, T/C [%]: 18.2
--
Compound: O=C(C=Cc1cccc(S(=O)(=O)Nc2ccccc2)c1)NO + NC1CCC(NC2CC2c2ccccc2)CC1
Tested On: 138582-337-R-J1-PDC complex spheroid viability
viability, T/C [%]: 89.3

**Q:** Which measured viability, T/C value corresponds to CCN(c1cc(-c2ccc(CN3CCOCC3)cc2)cc(C(=O)NCc2c(C)cc(C)[nH]c2=O)c1C)C1CCOCC1 + NC1CC1c1ccc(-c2cccc(O)c2)cc1 ?
**A:** 81
